- TARGET OR SYSTEM: TAAR1 (Mus musculus (Mouse), UniProt Q923Y8)
- Sequence (Q923Y8 whole entry): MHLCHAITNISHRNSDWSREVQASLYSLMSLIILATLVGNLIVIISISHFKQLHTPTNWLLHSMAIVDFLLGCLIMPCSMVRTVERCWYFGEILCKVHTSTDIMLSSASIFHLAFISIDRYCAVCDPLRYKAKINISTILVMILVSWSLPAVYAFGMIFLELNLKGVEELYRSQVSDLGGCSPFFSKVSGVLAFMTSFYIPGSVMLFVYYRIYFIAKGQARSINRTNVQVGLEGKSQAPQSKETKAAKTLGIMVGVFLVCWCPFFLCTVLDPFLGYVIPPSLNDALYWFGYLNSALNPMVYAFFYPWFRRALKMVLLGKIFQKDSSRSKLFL
- ASSAY OVERVIEW: Radioligand binding assay on TAAR1 (membranes of stably transfected HEK293 cells)
- TEST CONTEXT: competition with [3H]-rac-2-(1,2,3,4-tetrahydro-1-naphthyl)-2-imidazoline, 4° C., 30 min
Below, each of the molecules is paired with its reported Ki value.
Give just the numeric value; µM need not be written.

MOLECULE	TARGET OR SYSTEM	Ki [µM]
CC[C@@H](C[C@H]1COC(N)=N1)Oc1cccc(O)c1 [Example 141]	TAAR1 (Mus musculus (Mouse), UniProt Q923Y8)	0.0037
CC[C@H](OC[C@H]1COC(N)=N1)c1ccccc1 [Example 156]	TAAR1 (Mus musculus (Mouse), UniProt Q923Y8)	0.0073
CC(CC[C@H]1COC(N)=N1)c1ccc(F)cc1 (some centres unmarked) [Example 17]	TAAR1 (Mus musculus (Mouse), UniProt Q923Y8)	0.0012
COc1cccc(OCC[C@H]2COC(N)=N2)c1 [Example 20]	TAAR1 (Mus musculus (Mouse), UniProt Q923Y8)	0.0025

As a next step, examine the molecule that follows.
Query string: // Ki lookup, key: COc1ccc(OCC[C@H]2COC(N)=N2)cc1 [Example 59]
Result string: 0.0076

====

Below, each of the compounds is paired with its reported Ki value.
- TARGET OR SYSTEM: UniProt Q923Y8
- ASSAY OVERVIEW: Radioligand binding assay on TAAR1 (membranes of stably transfected HEK293 cells)
- TEST CONTEXT: competition with [3H]-rac-2-(1,2,3,4-tetrahydro-1-naphthyl)-2-imidazoline, 4° C., 30 min
Give just the numeric value; µM need not be written.

Below: 5 compounds and their reported Ki.
COMPOUND	DATA VALUE
C[C@H](CC[C@H]1COC(N)=N1)c1ccc(F)cc1	0.0011
NC1=N[C@@H](CC2CC2c2ccccc2)CO1 (some centres unmarked)	0.0031
CC[C@@H](C[C@H]1COC(N)=N1)Oc1ccc(Cl)cc1	0.001
CC[C@@H](C[C@H]1COC(N)=N1)Oc1ccc(C(F)(F)F)cc1	0.0038
CC[C@@H](C[C@H]1COC(N)=N1)Oc1ccc2ccccc2c1	0.0011

Query string: Ki of "NC1=N[C@@H](CCOc2cccc(C(F)(F)F)c2)CO1" on UniProt Q923Y8?
Result string: 0.0009

Query string: Proceed to "CC[C@@H](C[C@H]1COC(N)=N1)Oc1ccc(F)cc1F"
Result string: 0.0019

Query string: Proceed to "C[C@@H](C[C@H]1COC(N)=N1)Oc1ccc(F)cc1F"
Result string: 0.004

Query string: Proceed to "NC1=N[C@@H](CCC2(c3ccc(F)cc3)CC2)CO1"
Result string: 0.0025

====

- TARGET OR SYSTEM: TAAR1 (Mus musculus (Mouse), UniProt Q923Y8)
- ASSAY OVERVIEW: Radioligand binding assay on TAAR1 (membranes of stably transfected HEK293 cells)
- TEST CONTEXT: competition with [3H]-rac-2-(1,2,3,4-tetrahydro-1-naphthyl)-2-imidazoline, 4° C., 30 min
Below, each of the compounds is paired with its reported Ki value.

Query string: // Ki lookup, key: CC(CC[C@H]1COC(N)=N1)c1ccccc1 (some centres unmarked) [Example 13]
Result string: 0.0073 µM

====

- TARGET OR SYSTEM: TAAR1 (Mus musculus (Mouse))
- ASSAY OVERVIEW: Radioligand binding assay on TAAR1 (membranes of stably transfected HEK293 cells)
- TEST CONTEXT: competition with [3H]-rac-2-(1,2,3,4-tetrahydro-1-naphthyl)-2-imidazoline, 4° C., 30 min
ASSAY ENDPOINT: Ki (µM)
Give just the numeric value; µM need not be written.

Below: 3 compounds and their reported Ki.
COMPOUND	ASSAY ENDPOINT	UNIT	DATA VALUE
N#Cc1cccc(OCC[C@H]2COC(N)=N2)c1	Ki	µM	0.001
NC1=N[C@@H](CCC2(c3ccc(Cl)cc3)CCC2)CO1	Ki	µM	0.0059
NC1=N[C@@H](CCOc2ccccc2Cl)CO1	Ki	µM	0.0041

As a next step, examine the compound that follows.
Query string: // Ki lookup, key: CCC(CC[C@H]1COC(N)=N1)c1cccc(C(F)(F)F)c1 (stereo partly shown)
Result string: 0.0013

Entry source: patent US8729113B2
